B1: PilT^Pa two-hybrid fusion from pKT25::PilT^Pa (wild type) [Pseudomonas aeruginosa] / PilT^Pa two-hybrid fusion from pUT18C::pilT [Pseudomonas aeruginosa] (parent)
chain 1: MDITELLAFSAKQGASDLHLSAGLPPMIRVDGDVRRINLPPLEHKQVHALIYDIMNDKQRKDFEEFLETDFSFEVPGVARFRVNAFNQNRGAGAVFRTIPSKVLTMEELGMGEVFKRVSDVPRGLVLVTGPTGSGKSTTLAAMLDYLNNTKYHHILTIEDPIEFVHESKKCLVNQREVHRDTLGFSEALRSALREDPDIILVGEMRDLETIRLALTAAETGHLVFGTLHTTSAAKTIDRVVDVFPAEEKAMVRSMLSESLQSVISQTLIKKIGGGRVAAHEIMIGTPAIRNLIREDKVAQMYSAIQTGGSLGMQTLDMCLKGLVAKGLISRENAREKAKIPENF
chain 2: B1 chain 1

Variants of: B1
Experiment: bacterial two-hybrid (BACTH), β-galactosidase activity
Settings: with PilT^Pa two-hybrid fusion from pUT18C::pilT [Pseudomonas aeruginosa]; E. coli BTH101; n = 3; parent: 9.3e+03; read off a plot
recorded_metric: response (Miller units)
// note: answer is a bare numeric in Miller units

Give the measured response for chain 1 T216R
10000

Give the measured response for chain 1 K58A
10000

Give the measured response for chain 1 R239A
11000

Give the measured response for chain 1 E204A
8000

Give the measured response for chain 1 D242K
8000

Give the measured response for chain 1 R123D
8000

Give the measured response for chain 1 K58R
11000

Give the measured response for chain 1 K58Q
10000
